testTarget: recombinant human TRPV1 (Homo sapiens, UniProt Q8NER1)
Sequence (Q8NER1 whole entry): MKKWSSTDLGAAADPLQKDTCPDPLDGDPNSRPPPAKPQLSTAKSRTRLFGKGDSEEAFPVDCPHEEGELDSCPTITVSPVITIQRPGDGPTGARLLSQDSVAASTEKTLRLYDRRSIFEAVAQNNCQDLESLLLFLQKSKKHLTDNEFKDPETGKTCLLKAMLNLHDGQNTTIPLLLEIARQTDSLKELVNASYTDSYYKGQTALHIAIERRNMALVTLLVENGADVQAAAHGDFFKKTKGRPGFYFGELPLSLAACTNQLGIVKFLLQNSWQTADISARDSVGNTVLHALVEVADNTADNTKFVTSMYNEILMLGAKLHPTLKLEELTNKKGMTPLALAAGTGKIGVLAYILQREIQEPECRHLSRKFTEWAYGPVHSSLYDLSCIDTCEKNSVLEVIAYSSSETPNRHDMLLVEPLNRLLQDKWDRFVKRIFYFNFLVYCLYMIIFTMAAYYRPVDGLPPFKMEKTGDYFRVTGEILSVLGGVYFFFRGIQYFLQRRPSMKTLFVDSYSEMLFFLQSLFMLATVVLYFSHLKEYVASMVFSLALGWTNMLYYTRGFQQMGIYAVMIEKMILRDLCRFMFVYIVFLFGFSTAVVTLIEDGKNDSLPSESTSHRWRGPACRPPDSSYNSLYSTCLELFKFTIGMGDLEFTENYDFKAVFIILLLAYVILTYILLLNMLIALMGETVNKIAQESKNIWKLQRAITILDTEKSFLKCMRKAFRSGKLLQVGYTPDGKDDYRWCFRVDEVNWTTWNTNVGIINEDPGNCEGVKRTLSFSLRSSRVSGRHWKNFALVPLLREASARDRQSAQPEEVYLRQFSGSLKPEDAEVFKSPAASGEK
assayRemarks: FLIPR based Ca2+ influx assay, capsaicin-induced, TRPV1.CHO cells
condition: CHO-K1 cells stably expressing recombinant human TRPV1; 30 nM capsaicin (~EC80); 15 mins pre-incubation
parameter: IC50 (nM)

[P] C[Si](C)(C)c1ccc(NC(=O)N2CCN(c3ncccc3Cl)CC2)cc1
[Q] C[Si](C)(C)c1ccc(NC(=O)C2=CCN(c3ncccc3Cl)CC2)cc1
[R] C[Si](C)(C)c1ccc(NC(=O)c2ccc(-c3ncccc3C(F)(F)F)cc2)cc1
Highest IC50 first, then in falling order down to the smallest. Present the labels in the sequence the task asks for. R, Q, P
(R: 5.4 nM, Q: 2.3 nM, P: 0.5 nM)
